B1: ZNF207 (parent)
chain: CHICHKKLYTGPGLAIHCMQVHKE

# Variants of: B1
# Test Name: protein stability index of a GFP-peptide fusion (GPS, HEK-293T) (PSI 1-6); higher = more stable;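 note: lentivirally expressed fusions sorted by FACS into six bins by GFP to DsRed ratio, PSI derived from sequencing read proportions per bin multiplied by bin number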
# Settings: c terminus: a fixed tail appended
Each record here notes measured protein stability index.
Lab note: record the figure alone, no unit after it.

Study these solved cases before continuing.
| Variant Designation | protein stability index |
| --- | --- |
| E24I | 3.47 |
| H2I | 2.46 |
| L8N | 2.97 |
| P12C | 3.09 |
| Y9S | 4.28 |

Provide only the value of recorded protein stability index for M19S
4.03

Report protein stability index, nothing else, for this variant: T10F
2.4
